Recorded values, source patent US20250136619A1.

Endpoint: Kd. System: UniProt:P50750. Items follow.
Sequence (P50750 whole entry): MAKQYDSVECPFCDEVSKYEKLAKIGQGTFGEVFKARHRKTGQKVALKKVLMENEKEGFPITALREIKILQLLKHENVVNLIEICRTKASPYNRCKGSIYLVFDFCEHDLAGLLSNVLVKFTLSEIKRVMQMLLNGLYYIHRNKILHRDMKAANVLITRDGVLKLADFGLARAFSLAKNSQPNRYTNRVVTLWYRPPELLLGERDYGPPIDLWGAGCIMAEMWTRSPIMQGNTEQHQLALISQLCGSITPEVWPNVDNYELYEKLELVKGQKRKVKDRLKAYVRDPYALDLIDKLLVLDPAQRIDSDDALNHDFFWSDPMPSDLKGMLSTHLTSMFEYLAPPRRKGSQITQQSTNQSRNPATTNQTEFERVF

Worked cases, Kd given:
{"COMPOUND": "CN(C/C=C/C(=O)N1CCC[C@@H](n2nc(-c3ccc(Oc4ccccc4)cc3)c3c(N)ncnc32)C1)CCOCCOCCOCCOCCNS(=O)(=O)c1ccc(Nc2ncc(Br)c(Nc3cccc(F)c3C(N)=O)n2)cc1", "STUDY_TARGET": "UniProt:P50750", "Kd": "500 to 2500 nM"}
{"COMPOUND": "CCc1cnn2c(NCc3ccc(OCCOCCOCCOCCOCC(=O)N4CC(=O)N(c5cc(C#N)ccn5)[C@H](C(=O)N(c5cc(F)cc(F)c5)C(C(=O)NC5CC(F)(F)C5)c5ccccc5Cl)C4)nc3)cc(N3CCCC[C@H]3CCO)nc12 (stereo partly shown)", "STUDY_TARGET": "UniProt:P50750", "Kd": "50 to 500 nM"}
{"COMPOUND": "Cc1c(NC(=O)c2ccc(C3CC3)cc2F)cc(F)cc1-c1ncnc(N)c1OCCN(C)C(=O)/C=C/CN1CCC(OCCOCCOCCNS(=O)(=O)c2ccc(Nc3ncc(Br)c(Nc4cccc(F)c4C(N)=O)n3)cc2)CC1", "STUDY_TARGET": "UniProt:P50750", "Kd": "50 to 500 nM"}

Field request: Kd | item: `Cc1c(NC(=O)c2ccc(C3CC3)cc2F)cc(F)cc1-c1ncnc(N)c1OCCN(C)C(=O)/C=C/CN(C)CCCN1CCN(CCCNS(=O)(=O)c2ccc(Nc3ncc(Br)c(Nc4cccc(F)c4C(N)=O)n3)cc2)CC1`
50 to 500 nM

* * *

Tested on: HeLa cells
ASSAY_OVERVIEW: Cellular growth inhibition assay (CellTiter-Glo), HeLa cells
Type: cell-based
TEST_PARAMETERS: HeLa cells, three days of compound treatment, CellTiter-Glo 2.0; read-out: CTG HELA GI50
MEASUREMENT_TYPE: GI50

Past entries and their recorded results:
{"COMPOUND_SMILES": "CCc1cnn2c(NCc3ccc(OCCCN4CCN(CCCN(C)C/C=C/C(=O)N(C)CCOc5c(N)ncnc5-c5cc(F)cc(NC(=O)c6ccc(C7CC7)cc6F)c5C)CC4)nc3)cc(N3CCCC[C@H]3CCO)nc12", "GI50": "< 500 nM"}
{"COMPOUND_SMILES": "CCc1cnn2c(NCc3ccc(OCCOCCOCCCc4cc(-c5cnc([C@H](C)Nc6nccc(N7C(=O)OC[C@@H]7[C@H](C)F)n6)cc5C)cc(C(F)(F)F)n4)nc3)cc(N3CCCC[C@H]3CCO)nc12", "GI50": "< 500 nM"}

Okay, next one:
Any idea what its GI50 is? The compound is `CCc1cnn2c(NCc3ccc(OCCCc4cc(-c5cnc([C@H](C)Nc6nccc(N7C(=O)OC[C@@H]7[C@H](C)F)n6)cc5C)cc(C(F)(F)F)n4)nc3)cc(N3CCCC[C@H]3CCO)nc12`
< 500 nM

* * *

# collection of Kd values tested on BTK (Homo sapiens (Human), UniProt Q06187)
# Sequence (Q06187 whole entry): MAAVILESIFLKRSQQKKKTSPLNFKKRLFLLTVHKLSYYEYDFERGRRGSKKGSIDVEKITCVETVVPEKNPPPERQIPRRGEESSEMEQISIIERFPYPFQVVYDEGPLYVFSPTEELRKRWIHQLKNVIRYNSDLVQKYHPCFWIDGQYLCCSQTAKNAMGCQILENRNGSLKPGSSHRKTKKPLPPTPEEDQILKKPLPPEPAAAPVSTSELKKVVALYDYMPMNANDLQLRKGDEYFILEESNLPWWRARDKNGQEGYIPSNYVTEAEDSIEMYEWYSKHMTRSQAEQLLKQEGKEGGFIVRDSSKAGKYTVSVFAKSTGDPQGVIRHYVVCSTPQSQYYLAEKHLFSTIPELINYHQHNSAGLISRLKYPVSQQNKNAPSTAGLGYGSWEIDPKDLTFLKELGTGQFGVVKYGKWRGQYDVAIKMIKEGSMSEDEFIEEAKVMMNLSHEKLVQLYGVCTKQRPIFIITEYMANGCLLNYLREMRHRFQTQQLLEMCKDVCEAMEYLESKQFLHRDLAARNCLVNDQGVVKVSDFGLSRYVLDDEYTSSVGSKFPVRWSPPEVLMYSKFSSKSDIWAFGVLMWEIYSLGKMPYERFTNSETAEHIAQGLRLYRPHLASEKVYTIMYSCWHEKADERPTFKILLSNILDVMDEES

Below: 6 compounds and their reported Kd.
{"COMPOUND": "Cc1sc2c(c1C)C(c1ccc(Cl)cc1)=N[C@@H](CC(=O)NCCOCCOCCOCCOCCOCCOC/C=C/C(=O)N1CCC[C@@H](n3nc(-c4ccc(Oc5ccccc5)cc4)c4c(N)ncnc43)C1)c1nnc(C)n1-2", "STUDY_TARGET": "BTK (Homo sapiens (Human), UniProt Q06187)", "MEASUREMENT_TYPE": "Kd", "OBSERVED_VALUE": "< 50 nM"}
{"COMPOUND": "NC(=O)c1c(F)cccc1Nc1nc(Nc2ccc(S(=O)(=O)NCCOCCOCCOC3CCN(C/C=C/C(=O)N4CCC[C@@H](n5nc(-c6ccc(Oc7ccccc7)cc6)c6c(N)ncnc65)C4)CC3)cc2)ncc1Br", "STUDY_TARGET": "BTK (Homo sapiens (Human), UniProt Q06187)", "MEASUREMENT_TYPE": "Kd", "OBSERVED_VALUE": "< 50 nM"}
{"COMPOUND": "CCc1cnn2c(NCc3ccc(OCCOCCOCCOC4CCN(C/C=C/C(=O)N(C)CCOc5c(N)ncnc5-c5cc(F)cc(NC(=O)c6ccc(C7CC7)cc6F)c5C)CC4)nc3)cc(N3CCCC[C@H]3CCO)nc12", "STUDY_TARGET": "BTK (Homo sapiens (Human), UniProt Q06187)", "MEASUREMENT_TYPE": "Kd", "OBSERVED_VALUE": "50 to 500 nM"}
{"COMPOUND": "Cc1c(NC(=O)c2ccc(C3CC3)cc2F)cc(F)cc1-c1ncnc(N)c1OCCN(C)C(=O)/C=C/CN(C)CCCN1CCN(CCCNS(=O)(=O)c2ccc(Nc3ncc(Br)c(Nc4cccc(F)c4C(N)=O)n3)cc2)CC1", "STUDY_TARGET": "BTK (Homo sapiens (Human), UniProt Q06187)", "MEASUREMENT_TYPE": "Kd", "OBSERVED_VALUE": "< 50 nM"}
{"COMPOUND": "CN(OCCOCCOCCOCCOCCOCCOCCOCCOCCOC/C=C/C(=O)N1CCC[C@@H](n2nc(-c3ccc(Oc4ccccc4)cc3)c3c(N)ncnc32)C1)C(=O)N1N=C(c2cc(F)ccc2F)SC1(CCCN)c1ccccc1 (some centres unmarked)", "STUDY_TARGET": "BTK (Homo sapiens (Human), UniProt Q06187)", "MEASUREMENT_TYPE": "Kd", "OBSERVED_VALUE": "< 50 nM"}
{"COMPOUND": "NC(=O)c1c(F)cccc1Nc1nc(Nc2ccc(S(=O)(=O)NCCOCCOC/C=C/C(=O)N3CCC[C@@H](n4nc(-c5ccc(Oc6ccccc6)cc5)c5c(N)ncnc54)C3)cc2)ncc1Br", "STUDY_TARGET": "BTK (Homo sapiens (Human), UniProt Q06187)", "MEASUREMENT_TYPE": "Kd", "OBSERVED_VALUE": "50 to 500 nM"}

Enter reported Kd observed with BTK (Homo sapiens (Human), UniProt Q06187) for `Cc1sc2c(c1C)C(c1ccc(Cl)cc1)=N[C@@H](CC(=O)NCCCCCCCC/C=C/C(=O)N1CCC[C@@H](n3nc(-c4ccc(Oc5ccccc5)cc4)c4c(N)ncnc43)C1)c1nnc(C)n1-2`
500 to 2500 nM

Item: `NC(=O)c1c(F)cccc1Nc1nc(Nc2ccc(S(=O)(=O)NCCOCCOCCOCCOCCOCCOC/C=C/C(=O)N3CCC[C@@H](n4nc(-c5ccc(Oc6ccccc6)cc5)c5c(N)ncnc54)C3)cc2)ncc1Br` Test system: BTK (Homo sapiens (Human), UniProt Q06187) Read-out: Kd Value: ?
< 50 nM

Please tell me: Kd of `CC[C@@H]1C(=O)N(C)c2cnc(Nc3ccc(C(=O)NCCOCCOCCOCCOCCOCCOCCOC/C=C/C(=O)N4CCC[C@@H](n5nc(-c6ccc(Oc7ccccc7)cc6)c6c(N)ncnc65)C4)cc3OC)nc2N1C1CCCC1` , system BTK (Homo sapiens (Human), UniProt Q06187)?
< 50 nM

What value of Kd on BTK (Homo sapiens (Human), UniProt Q06187) does `CCc1cnn2c(NCc3ccc(OCCOCCOCCOCCOCCOC/C=C/C(=O)N4CCC[C@@H](n5nc(-c6ccc(Oc7ccccc7)cc6)c6c(N)ncnc65)C4)nc3)cc(N3CCCC[C@H]3CCO)nc12` have?
< 50 nM

Give recorded Kd with BTK (Homo sapiens (Human), UniProt Q06187) for the following compound: `NC(=O)c1c(F)cccc1Nc1nc(Nc2ccc(S(=O)(=O)NCCCCCCCC/C=C/C(=O)N3CCC[C@@H](n4nc(-c5ccc(Oc6ccccc6)cc5)c5c(N)ncnc54)C3)cc2)ncc1Br`
500 to 2500 nM

* * *

STUDY_TARGET: androgen receptor (Homo sapiens)
Sequence (P10275 whole entry, looked up): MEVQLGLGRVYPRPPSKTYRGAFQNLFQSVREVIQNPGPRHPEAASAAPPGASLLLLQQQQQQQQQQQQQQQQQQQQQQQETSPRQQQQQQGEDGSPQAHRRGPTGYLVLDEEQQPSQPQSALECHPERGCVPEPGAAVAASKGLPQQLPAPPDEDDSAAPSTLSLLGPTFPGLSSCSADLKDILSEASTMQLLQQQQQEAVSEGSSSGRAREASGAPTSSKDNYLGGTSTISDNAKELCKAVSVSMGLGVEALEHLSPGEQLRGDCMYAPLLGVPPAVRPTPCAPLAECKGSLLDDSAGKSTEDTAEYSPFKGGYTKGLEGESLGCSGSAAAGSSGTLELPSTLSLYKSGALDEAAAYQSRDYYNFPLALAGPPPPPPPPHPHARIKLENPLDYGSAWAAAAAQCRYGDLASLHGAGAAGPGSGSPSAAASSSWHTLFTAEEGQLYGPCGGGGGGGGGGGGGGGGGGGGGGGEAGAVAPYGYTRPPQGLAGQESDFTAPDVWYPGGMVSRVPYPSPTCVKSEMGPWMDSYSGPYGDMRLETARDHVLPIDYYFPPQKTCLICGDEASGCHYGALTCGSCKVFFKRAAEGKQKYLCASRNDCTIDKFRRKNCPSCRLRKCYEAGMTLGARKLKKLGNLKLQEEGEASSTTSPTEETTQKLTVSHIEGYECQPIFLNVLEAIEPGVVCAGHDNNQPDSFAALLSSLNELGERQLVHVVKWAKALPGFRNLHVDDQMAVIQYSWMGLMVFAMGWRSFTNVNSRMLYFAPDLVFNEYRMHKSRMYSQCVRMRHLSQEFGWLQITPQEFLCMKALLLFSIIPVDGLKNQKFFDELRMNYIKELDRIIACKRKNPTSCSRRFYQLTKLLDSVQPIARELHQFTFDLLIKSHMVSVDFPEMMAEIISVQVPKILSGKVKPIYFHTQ
pKd: −log10 of the molar value.
MEASUREMENT_TYPE: pKd

Reported pKd for androgen receptor (Homo sapiens), given Cc1sc2c(c1C)C(c1ccc(Cl)cc1)=N[C@@H](CC(=O)NCCOCCOCCOCCOCCOCCOCCOc1ccc(C(=O)NC3C(C)(C)C(Oc4ccc(C#N)c(Cl)c4)C3(C)C)cc1)c1nnc(C)n1-2 (stereo partly shown) ?
> 7.30

* * *

System: HEK293 cells
ASSAY_OVERVIEW: Cellular growth inhibition assay (CellTiter-Glo), HEK293 cells
Assay type: cell-based
TEST_PARAMETERS: HEK293 cells, three days of compound treatment, CellTiter-Glo 2.0; read-out: CTG HEK293 GI50
MEASUREMENT_TYPE: GI50

# annotated cases, reported GI50 shown
{"COMPOUND": "CCc1cnn2c(NCc3ccc(OCCOCCOCCNS(=O)(=O)c4cc(F)cc(N(C(=O)[C@@H]5CCC(=O)N5c5cc(C#N)ccn5)C(C(=O)NC5CC(F)(F)C5)c5ccccc5Cl)c4)nc3)cc(N3CCCC[C@H]3CCO)nc12 (stereo partly drawn)", "GI50": "< 500 nM"}
{"COMPOUND": "CCc1cnn2c(NCc3ccc(OCCOCCOCCOCCOCCNS(=O)(=O)c4cc(F)cc(N(C(=O)[C@@H]5CCC(=O)N5c5cc(C#N)ccn5)C(C(=O)NC5CC(F)(F)C5)c5ccccc5Cl)c4)nc3)cc(N3CCCC[C@H]3CCO)nc12 (stereo partly drawn)", "GI50": "1500 to 5000 nM"}
{"COMPOUND": "CCc1cnn2c(NCc3ccc(OCCCN4CCN(CCCN(C)C/C=C/C(=O)N(C)CCOc5c(N)ncnc5-c5cc(F)cc(NC(=O)c6ccc(C7CC7)cc6F)c5C)CC4)nc3)cc(N3CCCC[C@H]3CCO)nc12", "GI50": "< 500 nM"}
{"COMPOUND": "CCc1cnn2c(NCc3ccc(OCCCCCOc4nc(C#N)ccc4N[C@@H](C)c4cc5cc(Cl)ccc5[nH]c4=O)nc3)cc(N3CCCC[C@H]3CCO)nc12", "GI50": "< 500 nM"}
{"COMPOUND": "CCc1cnn2c(NCc3ccc(=O)n(CCOCCOCCOCCOCCNS(=O)(=O)c4cc(F)cc(N(C(=O)[C@@H]5CCC(=O)N5c5cc(C#N)ccn5)C(C(=O)NC5CC(F)(F)C5)c5ccccc5Cl)c4)c3)cc(N3CCCC[C@H]3CCO)nc12 (stereo partly drawn)", "GI50": "1500 to 5000 nM"}
{"COMPOUND": "CCc1cnn2c(NCc3ccc(OCCOCCOCCOCCOCCCc4cc(-c5cnc([C@H](C)Nc6nccc(N7C(=O)OC[C@@H]7[C@H](C)F)n6)cc5C)cc(C(F)(F)F)n4)nc3)cc(N3CCCC[C@H]3CCO)nc12", "GI50": "< 500 nM"}
{"COMPOUND": "CCc1cnn2c(NCc3ccc(OCCOCCOCCCc4cc(-c5cnc([C@H](C)Nc6nccc(N7C(=O)OC[C@@H]7[C@H](C)F)n6)cc5C)cc(C(F)(F)F)n4)nc3)cc(N3CCCC[C@H]3CCO)nc12", "GI50": "< 500 nM"}
{"COMPOUND": "CCc1cnn2c(NCc3ccc(OCCOCCOCCCCCn4c(C#N)ccc(N[C@@H](C)c5cc6cc(Cl)ccc6[nH]c5=O)c4=O)nc3)cc(N3CCCC[C@H]3CCO)nc12", "GI50": "< 500 nM"}

As a next step, examine the compound that follows.
Query: GI50; subject: `CCc1cnn2c(NCc3ccc(OCCCCCn4c(C#N)ccc(N[C@@H](C)c5cc6cc(Cl)ccc6[nH]c5=O)c4=O)nc3)cc(N3CCCC[C@H]3CCO)nc12`
1500 to 5000 nM
